# Tested on: Salmonella typhimurium
# Method Description: Antibacterial activity against Salmonella Typhimurium after 18 hrs by macro-dilution test
# Format: functional, Salmonella enterica subsp. enterica serovar Typhimurium
# Run Conditions: Salmonella enterica
Quantity: MIC (µg/mL)
Your answer is read as µg/mL, so omit the unit and give the number.

Indicate the recorded MIC value for this compound: CC(=O)N(C1=NN(C(C)=O)C(c2cc3cccc(C)c3nc2Cl)S1)c1cc(F)ccc1F (centres undefined)
32

Indicate the recorded MIC value for this compound: CC(=O)N(C1=NN(C(C)=O)C(c2cc3ccccc3nc2Cl)S1)c1ccc(C)cc1 (centres undefined)
64

Indicate the recorded MIC value for this compound: CC(=O)N1N=C(N(C(C)=O)C2CCCC2)SC1c1cc2ccccc2nc1Cl (centres undefined)
32

Indicate the recorded MIC value for this compound: CC(=O)N(C1=NN(C(C)=O)C(c2cc3cccc(C)c3nc2Cl)S1)c1ccc([N+](=O)[O-])cc1 (centres undefined)
64

Indicate the recorded MIC value for this compound: CC(=O)N(C1=NN(C(C)=O)C(c2cc3ccccc3nc2Cl)S1)c1ccc([N+](=O)[O-])cc1 (centres undefined)
64

Indicate the recorded MIC value for this compound: CC(=O)N(C1=NN(C(C)=O)C(c2cc3ccccc3nc2Cl)S1)c1cc(F)ccc1F (centres undefined)
32

Indicate the recorded MIC value for this compound: S=C(N/N=C/c1cc2cccc(Cl)c2nc1Cl)NC1CCCC1
128

Indicate the recorded MIC value for this compound: O=[N+]([O-])c1ccc(NC(=S)N/N=C/c2cc3cccc(Cl)c3nc2Cl)cc1
64

Indicate the recorded MIC value for this compound: Cc1cccc2cc(/C=N/NC(=S)NC3CCCC3)c(Cl)nc12
256

Indicate the recorded MIC value for this compound: CC(=O)N1N=C(N(C(C)=O)C2CCCCC2)SC1c1cc2ccccc2nc1Cl (centres undefined)
64

Indicate the recorded MIC value for this compound: CC(=O)N1N=C(N(C(C)=O)C2CCCCCCC2)SC1c1cc2cccc(C)c2nc1Cl (centres undefined)
128

Indicate the recorded MIC value for this compound: S=C(N/N=C/c1cc2cccc(Cl)c2nc1Cl)NC1CCCCCCC1
256

Indicate the recorded MIC value for this compound: Cc1ccc(NC(=S)N/N=C/c2cc3ccccc3nc2Cl)cc1
64

Indicate the recorded MIC value for this compound: Cc1ccc(NC(=S)N/N=C/c2cc3cccc(C)c3nc2Cl)cc1
32

---

# Test system: Staphylococcus aureus
# Method Description: Antibacterial activity against Staphylococcus aureus measured at MIC after 18 hrs by halo zone test
# Type: functional
Quantity: inhibition zone (IZ) (mm)
Your answer is read as mm, so omit the unit and give the number.

Indicate the recorded inhibition zone (IZ) value for this molecule: CC(=O)N(C1=NN(C(C)=O)C(c2cc3ccccc3nc2Cl)S1)c1ccccc1C (stereo unspecified)
15.66

Indicate the recorded inhibition zone (IZ) value for this molecule: S=C(N/N=C/c1cc2ccccc2nc1Cl)NC1CCCC1
19.52

Indicate the recorded inhibition zone (IZ) value for this molecule: CC(=O)N1N=C(N(C(C)=O)C2CCCC2)SC1c1cc2ccccc2nc1Cl (stereo unspecified)
20.63

Indicate the recorded inhibition zone (IZ) value for this molecule: CC(=O)N1N=C(N(C(C)=O)C2CCCCCCC2)SC1c1cc2cccc(C)c2nc1Cl (stereo unspecified)
18.77

Indicate the recorded inhibition zone (IZ) value for this molecule: Cc1ccccc1NC(=S)N/N=C/c1cc2cccc(Cl)c2nc1Cl
18.9

Indicate the recorded inhibition zone (IZ) value for this molecule: S=C(N/N=C/c1cc2cccc(Cl)c2nc1Cl)NC1CCCC1
17.68

Indicate the recorded inhibition zone (IZ) value for this molecule: CC(=O)N(C1=NN(C(C)=O)C(c2cc3cccc(C)c3nc2Cl)S1)c1cc(F)ccc1F (stereo unspecified)
21.99

Indicate the recorded inhibition zone (IZ) value for this molecule: CC(=O)N(C1=NN(C(C)=O)C(c2cc3cccc(Cl)c3nc2Cl)S1)c1ccc(C)cc1 (stereo unspecified)
15.67

Indicate the recorded inhibition zone (IZ) value for this molecule: S=C(N/N=C/c1cc2cccc(Cl)c2nc1Cl)NC1CCCCC1
17.23

Indicate the recorded inhibition zone (IZ) value for this molecule: CC(=O)NC1=NN(C(C)=O)C(c2cc3ccccc3nc2Cl)S1 (stereo unspecified)
15.67

Indicate the recorded inhibition zone (IZ) value for this molecule: Cc1cccc2cc(/C=N/NC(=S)NC3CCCC3)c(Cl)nc12
20.04

Indicate the recorded inhibition zone (IZ) value for this molecule: CC(=O)N(C1=NN(C(C)=O)C(c2cc3cccc(C)c3nc2Cl)S1)c1ccc([N+](=O)[O-])cc1 (stereo unspecified)
16.54

Indicate the recorded inhibition zone (IZ) value for this molecule: Cc1ccc(NC(=S)N/N=C/c2cc3cccc(C)c3nc2Cl)cc1
19.24

Indicate the recorded inhibition zone (IZ) value for this molecule: CC(=O)N1N=C(N(C(C)=O)C2CCCCCCC2)SC1c1cc2ccccc2nc1Cl (stereo unspecified)
14.57

Indicate the recorded inhibition zone (IZ) value for this molecule: CC(=O)N1N=C(N(C(C)=O)C2CCCCCCC2)SC1c1cc2cccc(Cl)c2nc1Cl (stereo unspecified)
17.62

Indicate the recorded inhibition zone (IZ) value for this molecule: NC(=S)N/N=C/c1cc2cccc(Cl)c2nc1Cl
21.13
